Read-out: Transforming growth factor beta 1 (TGFb1), TGFB1 (gene 7040)
Experiment: BSK_BE3C_TGFb1: BioMAP Diversity Plus: BE3C Assay for Transforming growth factor beta 1 (TGFb1) Biomarker Activity (AID 2283036)
Settings: primary human bronchial epithelial cells; actives raise or lower the signal
The source made the active and inactive calls. The calls were made as follows: active = hit-call score of the fitted dose curve at least 0.9, where 1 is the maximum; inactive = score below 0.9.
Classes used: active, inactive

compound	class
c1ccc(CCc2ccccc2)cc1	active
O=C1c2ccccc2C(=O)c2c(O)ccc(O)c21	inactive
CCN(CC)C(=O)N(CC)CC	inactive
CC(C)(C)CC(C)(C)c1ccc(OCCOCC[N+](C)(C)Cc2ccccc2)cc1	inactive
CCCCN(CCCC)C(=O)N(CCCC)CCCC	active
CN(c1nccc(=O)[nH]1)C1CCN(c2nc3ccccc3n2Cc2ccc(F)cc2)CC1	inactive
O=C1OC[C@H](Cc2cccc(O)c2)[C@H]1Cc1cccc(O)c1	inactive
IC(I)I	inactive
CC(C=O)Cc1ccc(C(C)(C)C)cc1 (configuration not stated)	inactive
CS(=O)(=O)c1ccc(C2=C(c3ccccc3)C(=O)OC2)cc1	inactive
C=C(C)C(=O)OCC(CC)(COC(=O)C(=C)C)COC(=O)C(=C)C	inactive
CCCCCC(C=O)=Cc1ccccc1	inactive

---

Experiment: ATG_Sox_CIS: Attagene CIS-FACTORIAL HepG2 Assay for human SRY-box transcription factor (SOX) (AID 2282960)
Details: HepG2 Attagene cis-factorial SOX reporter, mRNA; actives raise or lower the signal
Calls of active or inactive are those of the source. The calls were made as follows: active = hit-call score of the fitted dose curve at least 0.9, where 1 is the maximum; inactive = score below 0.9.
Possible outcomes: y for active, n for inactive

molecule	class
O=C(CS)OCCOC(=O)CS	n
NCCNc1cccc2ccccc12	n
CCCCCCCC(=O)OCCCCCC	n
Nc1c(Cl)cc(Cl)cc1[N+](=O)[O-]	n
C=CC(=O)OCCC#N	y
COc1ccccc1N=Nc1c(S(=O)(=O)O)cc2cc(S(=O)(=O)O)cc(NC(C)=O)c2c1O	n
CCCCC(CC)COC(C)=O (configuration not stated)	n

---

Assay: CEETOX_H295R_OHPROG_noMTC: CeeTox H295R High-throughput Steroidogenesis Assay for OH-Progesterone (OHPROG), maximum tolerated concentration (MTC) filtered results only (AID 2283914)
Conditions: actives raise or lower the signal
The source made the active and inactive calls. Rule for the calls: active = hit-call score of the fitted dose curve at least 0.9, where 1 is the maximum; inactive = score below 0.9.
Classes used: class 1 (active), class 0 (inactive)

compound	class
CC=Cc1ccc(OC)c(OC)c1	class 0
C=C[Si]1(C)O[Si](C)(C=C)O[Si](C)(C=C)O[Si](C)(C=C)O1 (centres undefined)	class 1
COc1ccc(OC)c(N=Nc2c(O)ccc3ccccc23)c1	class 0
O=C(Nc1ccc2c(O)c(N=Nc3ccc(N=Nc4ccc(S(=O)(=O)O)cc4)cc3)c(S(=O)(=O)O)cc2c1)c1ccccc1	class 0

---

Test: CCTE_Shafer_MEA_acute_burst_number: CCTE's Neural Acute Assay for Single-Electrode Bursts, Shafer Lab (AID 2284013)
Calls of active or inactive are those of the source. How the source made its calls: active means hit-call score of the fitted dose curve at least 0.9, where 1 is the maximum; inactive means score below 0.9.

compound	outcome
COCCc1ccc(OCC(O)CNC(C)C)cc1 (stereo not drawn)	inactive
CCCCCCC(CO)CCCC (stereo not drawn)	inactive
C=CC(C)(O)CCC=C(C)C (stereo not drawn)	inactive

---

Read-out: Transforming growth factor beta 1 (TGFb1), TGFB1 (gene 7040)
Assay: BSK_BE3C_TGFb1: BioMAP Diversity Plus: BE3C Assay for Transforming growth factor beta 1 (TGFb1) Biomarker Activity (AID 2283036)
Details: primary human bronchial epithelial cells; actives raise or lower the signal
Activity calls are given as the source filed them. How the source made its calls: active means hit-call score of the fitted dose curve at least 0.9, where 1 is the maximum; inactive means score below 0.9.
Outcome codes: active, inactive

compound	class
Clc1cc(Cl)c(-c2c(Cl)c(Cl)cc(Cl)c2Cl)cc1Cl	inactive
c1ccc(Oc2ccccc2)cc1	inactive
CCCCOC(=O)CCCCCCCC(=O)OCCCC	inactive
c1ccc2cc(Nc3ccc(Nc4ccc5ccccc5c4)cc3)ccc2c1	inactive
C[C@@H]1CCN(C(=O)[C@H](CCCN=C(N)N)NS(=O)(=O)c2cccc3c2NC[C@H](C)C3)[C@@H](C(=O)O)C1	inactive
CSCCC=O	inactive
C=C(C)C(=O)OCCOCCOCCOCCOC(=O)C(=C)C	inactive
CS(=O)(=O)OCCCCOS(C)(=O)=O	inactive
CC1(C)C2=CCCC(C)(C)[C@]23CC[C@H]1C3	active
CC=Cc1ccc(OCC)c(O)c1	inactive
C=C(C)[C@H]1CC=C(C)C(=O)C1	inactive
CCC(C)c1cc([N+](=O)[O-])cc([N+](=O)[O-])c1OC(=O)OC(C)C (configuration not stated)	active

---

Read-out: Intercellular Adhesion Molecule 1 (ICAM1), ICAM1 (gene 3383)
Test: BSK_3C_ICAM1: BioMAP Diversity Plus: 3C Assay for Intercellular Adhesion Molecule 1 (ICAM1) Biomarker Activity (AID 2283003)
Conditions: primary human endothelial cells (HUVEC); actives raise or lower the signal
The source made the active and inactive calls. How the source made its calls: active means hit-call score of the fitted dose curve at least 0.9, where 1 is the maximum; inactive means score below 0.9.
Classes used: 1 (active), 0 (inactive)

molecule	class
CN(C)C(=O)Nc1ccc(Oc2ccc(Cl)cc2)cc1	0
CC=Cc1ccc(OCC)c(O)c1	0
Oc1c(Cl)cc(Cl)c(Cl)c1Cc1c(O)c(Cl)cc(Cl)c1Cl	1
CCC(C)c1cc([N+](=O)[O-])cc([N+](=O)[O-])c1OC(=O)OC(C)C (centres undefined)	1
c1ccc(CCc2ccccc2)cc1	1
COc1ccc(CCN2CCC(Nc3nc4ccccc4n3Cc3ccc(F)cc3)CC2)cc1	0
C1=CC2C3C=CC(C3)C2C1 (centres undefined)	0
CC(C=O)Cc1ccc(C(C)(C)C)cc1 (centres undefined)	1
CC(=O)C1(C)CC2=C(CCCC2(C)C)CC1C (centres undefined)	1
O=C1OC2(c3ccccc31)c1ccc(O)c(Br)c1Oc1c2ccc(O)c1Br	0
Cc1cc(CCC(=O)OCCOCCOCCOC(=O)CCc2cc(C)c(O)c(C(C)(C)C)c2)cc(C(C)(C)C)c1O	0
C=C(C)C(=O)OCC(CC)(COC(=O)C(=C)C)COC(=O)C(=C)C	0
CN(C)C(=S)SC(=S)N(C)C	0
O=C1c2ccccc2C(=O)c2c(O)ccc(O)c21	0
C=C(C)C(=O)OCCOCCOCCOC(=O)C(=C)C	0
C=C(C)C(=O)OCCOCCOCCOCCOC(=O)C(=C)C	0
O=C1OC[C@H](Cc2cccc(O)c2)[C@H]1Cc1cccc(O)c1	0
c1ccc2cc(Nc3ccc(Nc4ccc5ccccc5c4)cc3)ccc2c1	0
CS(=O)(=O)OCCCCOS(C)(=O)=O	0
Clc1cc(Cl)c(-c2c(Cl)c(Cl)cc(Cl)c2Cl)cc1Cl	0
CCCCCCCCCCCCCCCC(=O)OC/C=C(C)/C=C/C=C(C)/C=C/C1=C(C)CCCC1(C)C	0
IC(I)I	0
CC(=O)c1c(C)c([N+](=O)[O-])c(C(C)(C)C)c([N+](=O)[O-])c1C	0
C[C@@H]1CCN(C(=O)[C@H](CCCN=C(N)N)NS(=O)(=O)c2cccc3c2NC[C@H](C)C3)[C@@H](C(=O)O)C1	0

---

Target: Ratio of Nucleoli Translocation and Cytoplasm, AR (gene 367) (UniProt P10275)
Sequence (P10275 whole entry, looked up): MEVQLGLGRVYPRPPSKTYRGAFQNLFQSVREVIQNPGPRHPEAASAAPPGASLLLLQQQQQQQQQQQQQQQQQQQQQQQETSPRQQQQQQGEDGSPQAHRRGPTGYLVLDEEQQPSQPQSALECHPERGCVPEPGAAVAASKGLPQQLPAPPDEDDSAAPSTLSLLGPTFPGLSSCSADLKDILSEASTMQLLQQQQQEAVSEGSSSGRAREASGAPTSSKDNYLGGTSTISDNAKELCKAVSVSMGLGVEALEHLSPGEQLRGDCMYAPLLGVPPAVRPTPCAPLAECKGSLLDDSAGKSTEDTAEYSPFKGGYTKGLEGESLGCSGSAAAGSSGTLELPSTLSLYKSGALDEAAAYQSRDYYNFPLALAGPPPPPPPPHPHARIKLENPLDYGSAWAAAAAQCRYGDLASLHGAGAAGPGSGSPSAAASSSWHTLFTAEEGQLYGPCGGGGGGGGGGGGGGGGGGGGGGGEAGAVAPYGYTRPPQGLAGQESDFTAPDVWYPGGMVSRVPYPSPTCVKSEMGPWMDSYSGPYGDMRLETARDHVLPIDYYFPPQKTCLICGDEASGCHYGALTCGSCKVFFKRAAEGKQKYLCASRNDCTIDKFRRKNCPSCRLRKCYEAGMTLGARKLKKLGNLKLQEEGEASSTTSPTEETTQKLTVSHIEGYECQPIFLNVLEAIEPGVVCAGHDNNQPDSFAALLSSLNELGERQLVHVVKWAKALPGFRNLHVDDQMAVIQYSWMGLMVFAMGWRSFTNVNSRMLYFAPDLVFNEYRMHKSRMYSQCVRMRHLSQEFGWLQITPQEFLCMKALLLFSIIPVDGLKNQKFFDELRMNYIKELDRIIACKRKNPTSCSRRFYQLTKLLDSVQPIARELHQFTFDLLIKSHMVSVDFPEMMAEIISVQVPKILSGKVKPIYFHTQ
Test: UPITT_HCI_U2OS_AR_TIF2_Nucleoli_Cytoplasm_Ratio_Antagonist: University of Pittsburgh U2OS Androgen Receptor-Transcriptional Intermediary Factor 2 (AR-TIF2) Antagonism High Content Imaging Assay for Ratio of Nucleoli Translocation and Cytoplasm (AID 2283999);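 also: antagonists lower the DHT-driven ratio of nucleolar to cytoplasmic red signal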
Results filed as inconclusive are left out. The source made the active and inactive calls. How the source made its calls: active means hit-call score of the fitted dose curve at least 0.9, where 1 is the maximum; inconclusive means response in the unintended direction; inactive means score below 0.9.
Labels: t for active, f for inactive

compound	measurement.target	class
Nc1ccc(N)c2c1C(=O)c1ccccc1C2=O	Ratio of Nucleoli Translocation and Cytoplasm, AR (gene 367) (UniProt P10275)	f
C[C@H]1O[C@@H](O[C@H]2[C@@H](O)C[C@H](O[C@H]3[C@@H](O)C[C@H](O[C@H]4CC[C@@]5(C)[C@H](CC[C@@H]6[C@@H]5C[C@@H](O)[C@]5(C)[C@@H](C7=CC(=O)OC7)CC[C@]65O)C4)O[C@@H]3C)O[C@@H]2C)C[C@H](O)[C@@H]1O	Ratio of Nucleoli Translocation and Cytoplasm, AR (gene 367) (UniProt P10275)	f
CCOC(=O)[C@@H](C)Oc1ccc(Oc2nc3ccc(Cl)cc3o2)cc1	Ratio of Nucleoli Translocation and Cytoplasm, AR (gene 367) (UniProt P10275)	f
CC(C)CCCCCCc1ccc(OCCOCCO)cc1	Ratio of Nucleoli Translocation and Cytoplasm, AR (gene 367) (UniProt P10275)	f
CC(=O)O[C@H]1C[C@@H]2CC[C@@]1(C)C2(C)C	Ratio of Nucleoli Translocation and Cytoplasm, AR (gene 367) (UniProt P10275)	f
Cc1ccc(S(=O)(=O)Oc2ccc(N=Nc3ccc(-c4ccc(N=Nc5c(O)ccc6cc(S(=O)(=O)O)cc(S(=O)(=O)O)c56)c(C)c4)cc3C)cc2)cc1	Ratio of Nucleoli Translocation and Cytoplasm, AR (gene 367) (UniProt P10275)	f
CCCCC1CCC(O)CC1 (centres undefined)	Ratio of Nucleoli Translocation and Cytoplasm, AR (gene 367) (UniProt P10275)	f
OCc1cccc(Oc2ccccc2)c1	Ratio of Nucleoli Translocation and Cytoplasm, AR (gene 367) (UniProt P10275)	f
CCc1cc(Cc2cc(CC)cc(C(C)(C)C)c2O)c(O)c(C(C)(C)C)c1	Ratio of Nucleoli Translocation and Cytoplasm, AR (gene 367) (UniProt P10275)	t
